Test system: 786-0
Assay: NCI tumour cell line growth inhibition, 48 h
Activity calls are given as the source filed them. Rule as the data show it: active = GI50 up to about 1.1 µM and inactive = higher.
Readout: GI50

Solved cases (10 shown):
COC1(OC)CC(CO)(COc2cc(Cl)nc(N)n2)C1    > 100 µM (inactive)
CC(C)(C)OC(=O)N1CCC2(CC1)C(=O)NCN2c1ccccc1    > 100 µM (inactive)
COc1cccc(CCCNC(=O)Cc2cc(OC)c(OC)cc2CO)c1    > 100 µM (inactive)
CCCCCCCCCCCCNC(=S)OC    15.8 µM (inactive)
COc1cc2c(cc1OC)C(=O)N1CCCC1C(=O)S2 (configuration not stated)    > 100 µM (inactive)
COc1cc2c(cc1OCc1ccccc1)NC(=O)[C@@H]1CCCN1C2=O    > 100 µM (inactive)
COC(=O)C(C)(C)[C@@H]1OC(=O)N(S(=O)(=O)c2c(C)cc(C)cc2C)[C@H]1C(C)C    > 100 µM (inactive)
Cc1ccc(/N=N/c2ccc(N(CCC#N)CCC#N)cc2C)c(Br)c1    17 µM (inactive)
O=C1c2ccccc2C2(c3ccc(Cl)cc3)N[C@H]3CCCC[C@@H]3N12 (some centres not stated)    95.1 µM (inactive)
COC(=O)C1CC(C(=O)OC)c2nc3cc(C)ccc3nc21 (configuration not stated)    > 100 µM (inactive)

stdin: Output GI50 of O=C1/C(=C/c2ccc([N+](=O)[O-])cc2)Sc2scc(-c3cccc([N+](=O)[O-])c3)[n+]21
stdout: 1.79 µM (inactive)

stdin: Given Oc1cccc(-c2nc3ccccc3s2)c1 , respond with its GI50.
stdout: 71.6 µM (inactive)

stdin: Dear colleague, please send me the reported GI50 for COc1ccc(/C=C2\Sc3nnc(-c4ccccc4)n3N=C2c2cc(F)c(Cl)cc2Cl)cc1OC when you can.
stdout: 48.4 µM (inactive)

stdin: Note GI50 for the compound shown: CN(C)CC1CCC/C(=C\c2ccccc2)C1=O (configuration not stated)
stdout: 2.65 µM (inactive)

stdin: Please give measured GI50 of the following entry: COc1ccc([C@H]2CC(=O)NCCCCN2)cc1
stdout: > 100 µM (inactive)
